- experiment: qHTS assay to identify small molecule that activate the aryl hydrocarbon receptor (AhR) signaling pathway - cell viability counter screen (AID 743086);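 note: HepG2 liver cells carrying the AhR DRE luciferase reporter; nearly all actives have a fitted effect of over 45% in size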
- recorded-conditions: HepG2-AhR-luc viability, CellTiter-Fluor, 24 h; series mostly up to 70.3 µM
Results filed as inconclusive are left out. The source made the active and inactive calls. Calls come from the whole dose curve; as a rule, active = well fitted cell-killing curve with a large enough effect in the repeat runs; inconclusive = weak or mixed curves, or effect the other way; inactive = flat fitted curve, though single readings scatter.
measure: outcome

1) Clc1ccc(C(c2ccccc2Cl)C(Cl)(Cl)Cl)cc1 (stereo not drawn); inactive
2) CC(C)[C@H](C(=O)OC(C#N)c1cccc(Oc2ccccc2)c1)c1ccc(OC(F)F)cc1 (stereo partly drawn); inactive
3) C[C@H]1O[C@@H](O[C@H]2[C@@H](O)C[C@H](O[C@H]3[C@@H](O)C[C@H](O[C@H]4CC[C@@]5(C)[C@H](CC[C@@H]6[C@@H]5CC[C@]5(C)[C@@H](C7=CC(=O)OC7)CC[C@]65O)C4)O[C@@H]3C)O[C@@H]2C)C[C@H](O)[C@@H]1O; inactive
